Taken from patent US12263248B2.

assay: Particle size and polydispersity index of nanoparticle compositions (Zetasizer Nano ZS); assay type: physicochemical; conditions: Table 1A
attributeMeasured: PDI
Give the figure only, with no unit attached.

Output measured PDI for this item: `CCCCCCCCCCCOC(=O)CCCCCN(CCO)CCCCCCCC(=O)N(CCCCCCCC)CCCCCCCC` 0.19

Output measured PDI for this item: `CCCCCCCCCOC(=O)CCCCCCCN(CCCCCCCC(=O)OC(CCCCCCCC)CCCCCCCC)CCOCCN(C)C` 0.24

Output measured PDI for this item: `CCCCCCCCCOC(=O)CCCCCCCN(CCCCCCCC(=O)OC(CCCCCCCC)CCCCCCCC)CCCNC(=S)NC` 0.13

Output measured PDI for this item: `CCCCCCCCC(CCCCCCCC)OC(=O)CCCCCCCN(CCO)CCCC(=O)OCCCC` 0.17

Output measured PDI for this item: `CCCCCCCCCOC(=O)CCCCCCCN(CCCCCCCC(=O)OC(CCCCCCCC)CCCCCCCC)CCCN1C(=O)CNC1=O` 0.21

Output measured PDI for this item: `CCCCCCCCCOC(=O)CCCCCCCN(CCCCCCCC(=O)OC(CCCCCCCC)CCCCCCCC)CCCNC(=O)OC` 0.12

Output measured PDI for this item: `CCCCCCCCCOC(=O)CCCN(C)CCCCCCCC(=O)OC(CCCCCCCC)CCCCCCCC` 0.18
